test system: MS2 coat protein; experiment: apparent KD of MS2 coat protein; designed switch direction (-1 OFF switch, 1 ON switch): 1; higher = weaker reporter binding; details: Eterna round: R95; input ligand: microRNA oligo, concentration not stated
Hi there, I'd appreciate the recorded apparent KD of MS2 coat protein for every entry that follows.
Answers are plain numbers, in nM.

Below: 7 sequences and their reported apparent KD of MS2 coat protein.
{"columns": ["sequence text", "endpoint name", "numeric value"],
 "data": [
  ["CAGCGCUGUCGAGAGGAUAUGCGGUGAUGGACAUGAGGAUCACCCAUGUUAGCGACAGCAUCACGGCAGAAGGCUCUAUCGCUGC [Soteed Omei mod 29] (puzzle: Same State 2)", "apparent KD of MS2 coat protein", 39.5],
  ["AGUCGAGCCUGAGCUCGACAAAAGCAUGUACAUGAGGAUCACCCAUGUCAUGUACAAGCUUUUUGCUCGUCUUAAAA [Mat - hsa-mir-208a - Mod of JL - D19] (puzzle: Sensor for hsa-mir-208a)", "apparent KD of MS2 coat protein", 13.5],
  ["AUAAGUUUGAUGCUCGUCUCUCCGUACAAACAUGAGGAUCACCCAUGUGGUCGGGAAGUAGCCCGGCCAGUAUGACC [Rigebelain] (puzzle: Sensor for hsa-mir-208a)", "apparent KD of MS2 coat protein", 24.4],
  ["AGUCCAGCAUGAGCUGGACAAAAGCAUGUACAUGAGGAUCACCCAUGUCAUGUACAAGCUUUUUGCUCGUCUUAAUA [Mat - hsa-mir-208a - Mod of JL - D35] (puzzle: Sensor for hsa-mir-208a)", "apparent KD of MS2 coat protein", 15.9],
  ["AACAAUCUAUCUGAGGAUAUCAUGAAAUAAACAUGAGGAUCACCCAUGUGCAGGAAAACUGCUUAUGAGAAGGCAGAUAGAUUGA [salish99_ss2_r3_047] (puzzle: Same State 2)", "apparent KD of MS2 coat protein", 12.6],
  ["CGUUCUUACUCGGUACGGUGAGUAGAGGAACAUGAGGAUCACCCAUGUAUGAGCUUUUUGCUCGUGAUUAACAGUAG [JR_SHM208a_Sub014] (puzzle: Sensor for hsa-mir-208a)", "apparent KD of MS2 coat protein", 63.3],
  ["AGUCCAGCCUGAGCUGGACUGAAGCAUGUACAUGAGGAUCACCCAUGUUCAUGUGCAGGCUUUUUGCUCGUCUUAUG [JL-shm-2.01 JL mod] (puzzle: Sensor for hsa-mir-208a)", "apparent KD of MS2 coat protein", 13.5]
]}

Here's the next entry for you.
Documented apparent KD of MS2 coat protein of AGUCCAGCAUGAGCUGGACAAAAGCAUGUACAUGAGGAUCACCCAUGUUCAUGUACAAGCUUUUUGCUCGUCUUAAU [Mat - hsa-mir-208a - Mod of JL - 61] (puzzle: Sensor for hsa-mir-208a) : 15.9

----------
system: MS2 coat protein; assay: apparent KD of MS2 coat protein; higher = weaker reporter binding; conditions: Eterna round: R107; input ligand: theophylline 2 mM
Please go through the items and note down their apparent KD of MS2 coat protein.
Give bare numbers, in nM.

{"columns": ["sequence text", "apparent KD of MS2 coat protein / nM"],
 "data": [
  ["UGUACUAUGUGAAGGAGCGAGAAUCCUACAUGAGGAUCACCCAUGUAAGAGCGAAAGCUCACUCAGGUAGGUCGCACAUAGUACU [#17 Same State - Arginine B]", 43.7],
  ["UCGCUCUGGGUGAAUUCCGGAGAUGUGGAAGGAGCGGACGAAAGUCCAGGUAGGUCGCCAUCGAACAUGAGGAUCACCCAUGUAC [Same State - Arginine A (Freestyle 24)]", 165],
  ["ACAUUGCGCACGGCCGCCACUGGCUAUAGAUUUAUAGCAUUAAUGAACAUGAGGAUCACCCAUGUCAGGACCGGGUGCGAACCAU [SSTryp B #9]", 27.6]
]}

Measured apparent KD of MS2 coat protein of UGUAUGUGAUCUGAUACCAGUCCAACUGGUAAAGCACGAGGAUCACCCGUGUAAAAUUGGGACCCUUGGCAGCAGAUCGCAUACU : 57.8

Reference for the values: the supplement of paper PMC9170038
